# Tested on: EPHB3
# Conditions used: concentration: 1 μM, replicates: in singlicate; n = 1
Property: %Inh; scope: individual compounds
Quick reminder: number only, in %, skip the unit.

INSERT INTO assay_data (compound, recorded_metric, recorded_measurement) VALUES
  ('O=C(Nc1ccccc1F)NC1CCN(c2ccnc(Nc3ccc(F)cc3)n2)C1 (stereo not drawn)', '%Inh', 17),
  ('OCCOCCn1ccc2ncnc(Nc3ccc(Oc4cccc(Cl)c4)c(Cl)c3)c21', '%Inh', 6),
  ('COc1ccc(Nc2nccc(N3CCC(NC(=O)c4cccc(NC(C)=O)c4)C3)n2)cc1 (stereo not drawn)', '%Inh', 1),
  ('CCCc1ccc(S(=O)(=O)NC2CCN(c3ccnc(Nc4ccc(OC)cc4)n3)C2)cc1 (stereo not drawn)', '%Inh', 5),
  ('Nc1nc(-c2ccc3c(N)n[nH]c3c2)cc(N2CCCCC2)n1', '%Inh', 0);

Please supply the value of reported %Inh for the item CN1c2ccc(-c3ccc(C(=O)NCCO)cc3)cc2-c2[nH]ncc2S1(=O)=O
18

For the compound Fc1cccc(COc2ccc(Nc3ncnc4nn5ccccc5c34)cc2Cl)c1 , give its measured %Inh value.
16

Input O=C(CCO)NCCn1ccc2ncnc(Nc3ccc(Oc4cccc(C(F)(F)F)c4)c(Cl)c3)c21 , output reported %Inh.
2

# return recorded %Inh for entry C[C@@H]1CCN(C(=O)CO)C[C@@H]1N(C)c1ncnc2[nH]ccc12
0

Look up and state reported %Inh for C[C@H]1CC[C@@H](C(=O)Nc2ccccc2)CN1c1cc(-c2ccc3c(N)n[nH]c3c2)nc(N)n1
24

Determine from records and report %Inh for Cl.Fc1ccccc1COc1ccc(Nc2ncnc3ccc(-c4nnc(C(F)(F)F)o4)cc23)cc1Cl
2

Answer with reported %Inh of CCn1c(-c2ccncc2)nc2cnccc21
11

----------
# Tested on: STK36
# Conditions used: concentration: 1 μM, replicates: in singlicate; n = 1
Condition met means recorded %Inh is 6% or above; Condition not met means it is below 6%.

Example entries and their recorded answers appear below.
INSERT INTO results (molecule, target_under_test, label_value) VALUES
  ('COc1ccc(-c2oc3ncnc(N)c3c2-c2ccc(OC)cc2)cc1', 'STK36', 'Condition not met'),
  ('COc1ccc(NC(=O)c2ccc(-c3cc(-c4nnc(C)o4)ccc3C)cc2)cc1', 'STK36', 'Condition not met'),
  ('O=C(CCO)NCCn1ccc2ncnc(Nc3ccc(Oc4cccc(C(F)(F)F)c4)c(Cl)c3)c21', 'STK36', 'Condition not met'),
  ('Nc1nc(-c2cccnc2)c(-c2ccnc3ccccc23)s1', 'STK36', 'Condition not met'),
  ('CC(=O)Nc1n[nH]c2ncc(-c3ccccc3)cc12', 'STK36', 'Condition met');

Would you say Cl.c1ccc(Cn2ncc3cc(Nc4ncnc5ccccc45)ccc32)cc1 shows %Inh at minimum 6%?
Condition not met

State whether the measured %Inh reaches 6%, counting equality as reaching it, for Cc1cccc(-c2nc(Nc3ccc4[nH]nnc4c3)c3ccccc3n2)n1
Condition not met

Kindly determine if %Inh recorded for C[C@H]1CC[C@@H](C(=O)Nc2ccccc2)CN1c1cc(-c2ccc3c(N)n[nH]c3c2)nc(N)n1 is above or exactly 6%.
Condition not met

Would you say CC(C)(C)OC(=O)NC1CCCN(c2cc(-c3ccc4c(N)n[nH]c4c3)nc(N)n2)C1 (centres unmarked) shows %Inh at minimum 6%?
Condition not met

----------
# Test system: CSNK2A1
# Conditions used: concentration: 1 μM, replicates: in singlicate; n = 1
Recorded metric: %Inh (%)
Value expressed in %; do not type the unit.

Provide the reported %Inh (system: CSNK2A1) for Fc1ccc(-c2ncn(CCCNCc3ccccc3)c2-c2ccncc2)cc1
22

Identify measured %Inh obtained with CSNK2A1 for O=C(Nc1ccccc1F)NC1CCN(c2ccnc(Nc3ccc(F)cc3)n2)C1 (stereo not drawn) .
0

Write %Inh of N#Cc1ccc(Oc2ccc(Nc3ncnc4cc[nH]c34)cc2Cl)cc1 ; system used: CSNK2A1
48

Report the value of %Inh obtained on CSNK2A1 for O=C(NCCCN1CCCC1=O)c1cnc(NCc2cc(Cl)ccc2Cl)nc1NC1CCNCC1 .
0

With CSNK2A1 as the test system, provide measured %Inh for this compound: FC(F)(F)c1ccc(-c2nn3ncccc3c2-c2ccnc(Nc3cccc(C(F)(F)F)c3)n2)cc1
0

Write down measured %Inh (CSNK2A1) for this compound. c1ccc(-c2ccc3c(-c4ccnc(Nc5ccc6c(c5)OCCO6)n4)cnn3n2)cc1
18

Give the observed %Inh of Cl.c1ccc(Cn2ccc3cc(Nc4ncnc5ccccc45)ccc32)cc1 for CSNK2A1.
4

Fetch value of %Inh on CSNK2A1 for CCc1nc(-c2cccc(C)c2)c(-c2ccnc(NC(=O)c3ccccc3)c2)s1 .
12

Write %Inh of OCCOCCn1ccc2ncnc(Nc3ccc(Oc4cccc(Cl)c4)c(Cl)c3)c21 ; system used: CSNK2A1
0

----------
Parameter: %Inh. Scope: all listed entries.
# System: PHKG2
# Conditions used: concentration: 1 μM, replicates: in singlicate; n = 1
Give the number; % is assumed, so skip it.

Some compounds with known %Inh results, for comparison:
INSERT INTO assay_data (compound, target_under_test, recorded_metric, result_units, recorded_measurement) VALUES
  ('O=C(Nc1ccccc1)Nc1ccc(Oc2ccc3nccn3n2)cc1', 'PHKG2', '%Inh', '%', 5),
  ('CCC(CC)(CC)n1cnc2c(N)ncnc21 [SKF-97620]', 'PHKG2', '%Inh', '%', 0),
  ('COC(=O)c1cccc(NC(=O)NCCNc2ccnc(Nc3ccc(F)cc3)n2)c1 [GSK1379883]', 'PHKG2', '%Inh', '%', 0);

Answer with the recorded %Inh of CS(=O)(=O)CCNCc1nc(-c2ccc3ncnc(Nc4ccc(OCc5cccc(F)c5)c(Cl)c4)c3c2)cs1.Cl [GW583340] only.
0

Supply %Inh value. Item: CC(=O)Nc1n[nH]c2ncc(-c3ccccc3)cc12 [SB-548492]
0

----------
# System: DMPK2;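 further: kd values determined as follow-up on hits from a single-replicate KINOMEscan panel screen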
# Construct: gene CDC42BPG
Below: a set of entries, each annotated with reported Kd.

Past entries and their recorded results:
INSERT INTO assay_data (compound, recorded_measurement) VALUES
  ('Clc1cccc(-c2nc(Nc3ccncc3)c3ccccc3n2)c1 [GW873004]', '> 10 µM'),
  ('CCCc1ccc(S(=O)(=O)NC2CCN(c3ccnc(Nc4ccc(OC)cc4)n3)C2)cc1 (stereo not drawn) [GSK1379737]', '> 10 µM');

Give a short answer stating reported Kd for CNc1nccc(-c2c(-c3ccc(F)cc3)ncn2CCCN2CCOCC2)n1 [SB-222516] .
> 10 µM

----------
# Tested on: MLK3
# Conditions used: concentration: 1 μM, replicates: in singlicate; n = 1
Below, each entry is listed with its recorded %Inh.
// return numeric value only (unit: %, not printed)

INSERT INTO results (structure_string, recorded_metric, recorded_measurement) VALUES
  ('Clc1ccc(-c2cc(-c3c[nH]nc3-c3ccccn3)ccn2)cc1', '%Inh', 0);

Consider the molecule CSc1ccc(NC2=C(c3ccccc3Cl)C(=O)NC2=O)cc1 . State its measured %Inh.
4

Given Clc1cc(Nc2ncnc3cc[nH]c23)ccc1OCc1ccccn1 , respond with its %Inh.
0

----------
# System: BRK
# Construct: gene PTK6
# Conditions used: concentration: 1 μM, replicates: in singlicate; n = 1
Recorded metric: %Inh (%)
Only the number, expressed in %, is required.

The examples below pair each entry with its known result.
INSERT INTO measurements (structure_string, result_units, recorded_measurement) VALUES
  ('Oc1ccc2ncnc(Nc3ccc(OCc4ccccc4)cc3)c2c1', '%', 4),
  ('Cc1ccc(C)c(NC(=O)NCCNc2ccnc(Nc3ccc(F)cc3)n2)c1', '%', 1);

# input for lookup
Recall and state the measured %Inh for COc1ccc(NC(=O)c2ccc(-c3cc(-c4nnc(C)o4)ccc3C)cc2)cc1 .
11

----------
Overview of recorded %Inh for various molecules
# System: EPHA2
# Conditions used: concentration: 1 μM, replicates: in singlicate; n = 1
Number plus unit, in that order.

Guide cases for %Inh, answers given:
INSERT INTO results (molecule, recorded_measurement) VALUES
  ('Fc1ccc(-c2ncn(CCCNCc3ccccc3)c2-c2ccncc2)cc1', '10%'),
  ('CCn1c(-c2ccncc2)nc2cnccc21', '5%'),
  ('Cc1ccc(NC(=O)c2cccc(C#N)c2)cc1-c1ccc(C(=O)Nc2ccncc2)cc1', '30%'),
  ('FC(F)(F)c1cc(Nc2nccc(-c3c(-c4ccc(Cl)cc4)nn4ncccc34)n2)ccc1Cl', '0%'),
  ('CC(=O)Nc1n[nH]c2ncc(-c3ccccc3)cc12', '0%'),
  ('COC(=O)c1c(-c2ccccc2)c2cc(Cl)ccc2c(=O)n1Cc1ccc(S(C)(=O)=O)cc1', '8%');

Tell me %Inh reported for COc1ccc(Nc2nccc(N3CCC(NC(=O)c4cccc(NC(C)=O)c4)C3)n2)cc1 (stereo not drawn)
20%

Find the measured %Inh of CSc1ccc(NC2=C(c3ccccc3Cl)C(=O)NC2=O)cc1 and report it.
27%

Tell me %Inh reported for Nc1nccc2scc(-c3ccc4c(c3)CCN4C(=O)Cc3cc(F)ccc3F)c12
17%
